Listing: TGI of selected compounds
tested on: HT29 colon; experiment: NCI tumour cell line growth inhibition, 48 h

| COMPOUND | TARGET_OR_TEST_SYSTEM | TGI |
| --- | --- | --- |
| COc1ccc(OC)c(N2C(=O)/C(=C\c3ccccc3)SC2c2cc(OC)c(OC)c(OC)c2)c1 (stereo unspecified) | HT29 colon | > 100 µM |
| COC(=O)C1CC2C=CC1N(C(=O)OCc1ccccc1)C2 (stereo unspecified) | HT29 colon | > 100 µM |
| N#Cc1c(N)nc(Nc2cccc3ccccc23)c(C#N)c1C#N | HT29 colon | > 10 µM |
| O=C(OCCN=C1c2ccccc2CCc2ccccc21)c1ccccc1 | HT29 colon | > 100 µM |
| O=C(O)C(Cc1c[nH]c2ccccc12)C(=O)NO (stereo unspecified) | HT29 colon | > 100 µM |
| CN(C(=O)CC(=O)CP(=O)(c1ccccc1)c1ccccc1)c1ccccc1 | HT29 colon | > 100 µM |

----------
system: MCF7 breast; test: NCI tumour cell line growth inhibition, 48 h
TEST_READOUT: TGI

| MOLECULE | TEST_READOUT | OBSERVED_VALUE |
| --- | --- | --- |
| CN(C(=O)CC(=O)CP(=O)(c1ccccc1)c1ccccc1)c1ccccc1 | TGI | > 100 µM |
| c1ccc(NNN2NC(c3ccccc3)C2c2ccccc2)cc1 (stereo not drawn) | TGI | > 100 µM |
| CN=C(NN)NS(=O)(=O)c1cc(C)c(Cl)cc1S | TGI | > 100 µM |

----------
system: MDA-N; experiment: NCI tumour cell line growth inhibition, 48 h
TEST_READOUT: TGI

| COMPOUND | OBSERVED_VALUE |
| --- | --- |
| CNc1nc(SC)nc2c1c(N)nn2C | > 100 µM |
| O=C(CON1C(=O)c2ccccc2C1=O)c1ccccc1 | > 100 µM |
| COC(=O)C12CCC(C(F)(F)C1=O)C2(C)C (stereo unspecified) | > 100 µM |
| CC(C)c1cc(C(F)(F)F)nc(NNc2nc(C(C)C)cc(C(F)(F)F)n2)n1 | > 100 µM |
| O=c1[nH]c(=S)[nH]c2c1C(c1ccc(Cl)cc1)c1c([nH]c(=S)[nH]c1=O)O2 | > 100 µM |
| COc1ccc(/C=C2/N=C(N/N=C\C(O)C(O)C(O)C(O)CO)NC2=O)cc1 (stereo unspecified) | > 100 µM |
| COc1ccc2c(c1)c(=O)c1c(NCCN(C)C)ccc3c(=O)n(CCN(C)C)c(=O)n2c31 | 0.254 µM |
| N#CC(=N)c1ncn(CCO)c1NC(=O)C(F)(F)F | > 100 µM |
| COc1ccc(C(=O)/C=C2\C(=O)Nc3ccc(Br)cc32)cc1 | 16.7 µM |
| COc1ccc(C=Nc2c(O)ccc3ccccc23)cc1OC | 35.1 µM |
| CN(C)CCNc1ccc2c(=O)n(CCN(C)C)c(=O)n3c4ccccc4c(=O)c1c23 | 0.71 µM |
| C=C(C)C(=O)OC1CC2(C)OC(=CC2=O)C(C)CC2OC(=O)C(=C)C12 (stereo unspecified) | 7.98 µM |
| CC(C)[Si]1(C(C)C)OCC2OC(N3C(=O)NC(=O)C[C@@H]3C(O)c3ccccc3)CC2O[Si](C(C)C)(C(C)C)O1 (stereo partly specified) | 9.61 µM |
| O=C(OCCN=C1c2ccccc2CCc2ccccc21)c1ccccc1 | > 100 µM |
| Cc1nn2c(C(=O)N/N=C/c3ccccc3O)c(C)nc2s1 | > 100 µM |
| COc1cc(O)c2c(=O)c(OC)c(-c3ccc(OC)c(OC)c3)oc2c1.[Co] | > 100 µM |
